molecular target: Angiotensin-converting enzyme (Homo sapiens); assay: Inhibition of ACE (unknown origin) at IC50 using Hippuryl-L-Histidyl-L-Leucine as substrate after 60 mins by colorimetric method relative to control
Sequence (P12821 whole entry): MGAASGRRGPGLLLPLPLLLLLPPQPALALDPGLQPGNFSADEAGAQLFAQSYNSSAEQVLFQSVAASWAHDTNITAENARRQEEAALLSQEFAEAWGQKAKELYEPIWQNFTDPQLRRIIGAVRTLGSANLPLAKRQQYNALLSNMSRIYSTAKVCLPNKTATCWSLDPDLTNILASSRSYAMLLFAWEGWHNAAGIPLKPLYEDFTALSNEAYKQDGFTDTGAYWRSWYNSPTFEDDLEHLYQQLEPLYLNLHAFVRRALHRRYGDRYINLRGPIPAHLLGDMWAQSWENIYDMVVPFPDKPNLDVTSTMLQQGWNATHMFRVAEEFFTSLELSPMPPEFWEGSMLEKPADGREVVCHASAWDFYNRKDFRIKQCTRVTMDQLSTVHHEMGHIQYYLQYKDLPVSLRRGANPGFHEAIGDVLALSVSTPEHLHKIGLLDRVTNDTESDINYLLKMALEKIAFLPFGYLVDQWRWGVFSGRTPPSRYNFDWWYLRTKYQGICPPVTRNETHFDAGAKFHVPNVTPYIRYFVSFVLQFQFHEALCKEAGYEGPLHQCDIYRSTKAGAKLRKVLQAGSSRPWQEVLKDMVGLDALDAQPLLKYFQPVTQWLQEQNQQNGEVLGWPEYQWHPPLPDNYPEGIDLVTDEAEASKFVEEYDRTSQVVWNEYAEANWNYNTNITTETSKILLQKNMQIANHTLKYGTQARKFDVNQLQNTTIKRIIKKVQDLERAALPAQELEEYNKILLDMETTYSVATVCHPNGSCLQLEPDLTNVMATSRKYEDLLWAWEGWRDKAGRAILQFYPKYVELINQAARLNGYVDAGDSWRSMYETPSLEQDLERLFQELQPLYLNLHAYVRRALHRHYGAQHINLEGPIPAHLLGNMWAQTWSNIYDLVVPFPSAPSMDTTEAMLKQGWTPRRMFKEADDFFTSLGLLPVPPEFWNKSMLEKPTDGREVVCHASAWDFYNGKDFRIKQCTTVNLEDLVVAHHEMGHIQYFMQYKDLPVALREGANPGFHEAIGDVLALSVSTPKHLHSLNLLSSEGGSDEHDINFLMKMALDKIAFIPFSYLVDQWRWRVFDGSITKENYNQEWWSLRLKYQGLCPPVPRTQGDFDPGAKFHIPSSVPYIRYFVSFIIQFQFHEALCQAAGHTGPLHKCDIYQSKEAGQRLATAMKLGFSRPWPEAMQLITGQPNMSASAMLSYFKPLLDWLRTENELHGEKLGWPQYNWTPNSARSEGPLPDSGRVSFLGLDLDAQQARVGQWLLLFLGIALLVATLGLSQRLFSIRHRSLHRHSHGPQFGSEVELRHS
result.type: inhibition (%)
Use % as the unit, but write only the number.

// query // returns reported inhibition for input `CC(=O)N1C(=O)/C(=N\C(=S)NCc2cc3ccccc3cc2O)c2ccccc21`
// result 82.7

// query Also check `CN1C(=O)/C(=N\C(=S)NCc2cc3ccccc3cc2O)c2ccccc21`
// result 66.5

// query What about this compound? `O=C1/C(=N\C(=S)NCc2cc3ccccc3cc2O)c2ccccc2N1CCBr`
// result 90.5

// query Another compound to check: `O=C1/C(=N\C(=S)NCc2cc3ccccc3cc2O)c2ccccc2N1c1ccccc1Cl`
// result 76.5

// query Also check `COc1ccc(CN2C(=O)/C(=N\C(=S)NCc3cc4ccccc4cc3O)c3ccccc32)cc1`
// result 88.5

// query Queued: `CC(=O)CN1C(=O)/C(=N\C(=S)NCc2cc3ccccc3cc2O)c2ccccc21`
// result 24

// query Param item: `O=C1/C(=N\C(=S)NCc2cc3ccccc3cc2O)c2ccccc2N1c1ccccc1`
// result 69.2

// query Entry `O=C(O)CN1C(=O)/C(=N\C(=S)NCc2cc3ccccc3cc2O)c2ccccc21` please
// result 96.1

// query Now try `Cc1ccc(C(=O)N2C(=O)/C(=N\C(=S)NCc3cc4ccccc4cc3O)c3ccccc32)cc1` .
// result 65

// query Would you mind doing `O=C1/C(=N\C(=S)NCc2cc3ccccc3cc2O)c2ccccc2N1C(=O)c1ccccc1` as well?
// result 87.3

// query Ok, now `COc1ccc(N2C(=O)/C(=N/C(=S)NCc3cc4ccccc4cc3O)c3ccccc32)cc1`
// result 86.4

// query Same lookup for `CCCN1C(=O)/C(=N\C(=S)NCc2cc3ccccc3cc2O)c2ccccc21` , please.
// result 80.7

// query Now give it for `NCCCC[C@H](N[C@@H](CCc1ccccc1)C(=O)O)C(=O)N1CCC[C@H]1C(=O)O` too.
// result 89.1

* * *

test system: Blood; assay: Thrombolytic activity in human blood after 2 hrs; type: functional, tissue-based
result.type: IC50 (nM)
Kindly answer with a numeric value in nM, unit omitted.

// query Entry under review: `O=C(O)CN1C(=O)/C(=N\C(=S)NCc2cc3ccccc3cc2O)c2ccccc21` . Reported IC50?
// result 35

* * *

system: DNA; test: Inhibition of H2O2-induced Escherichia coli DH5alpha genomic DNA damage at 25 to 250 uL after 24 hrs by ethidium-bromide staining-based agarose gel electrophoresis; assay type: nucleic-acid assay; conditions: Escherichia coli DH5[alpha]
Calls of active or inactive are those of the source. No cut-off for these calls is given here.
Log the outcome using a class from active, inactive

// query Hey, what did the test say about `O=C1/C(=N\C(=S)NCc2cc3ccccc3cc2O)c2ccccc2N1CCBr` ?
// result active

// query Try the molecule `O=C(O)CN1C(=O)/C(=N\C(=S)NCc2cc3ccccc3cc2O)c2ccccc21`
// result active

// query Same thing, different molecule: `CN1C(=O)/C(=N\C(=S)NCc2cc3ccccc3cc2O)c2ccccc21`
// result inactive

// query One more molecule: `O=C1/C(=N\C(=S)NCc2cc3ccccc3cc2O)c2ccccc2N1C(=O)c1ccccc1`
// result active

// query Try `COc1ccc(CN2C(=O)/C(=N\C(=S)NCc3cc4ccccc4cc3O)c3ccccc32)cc1` next.
// result active

// query Entry to check: `CC(=O)N1C(=O)/C(=N\C(=S)NCc2cc3ccccc3cc2O)c2ccccc21`
// result active
